The reported numbers originate from the supplement of paper PMC10065799.

# system: FGFR1 (UniProt P11362)
# Sequence (P11362 whole entry, looked up): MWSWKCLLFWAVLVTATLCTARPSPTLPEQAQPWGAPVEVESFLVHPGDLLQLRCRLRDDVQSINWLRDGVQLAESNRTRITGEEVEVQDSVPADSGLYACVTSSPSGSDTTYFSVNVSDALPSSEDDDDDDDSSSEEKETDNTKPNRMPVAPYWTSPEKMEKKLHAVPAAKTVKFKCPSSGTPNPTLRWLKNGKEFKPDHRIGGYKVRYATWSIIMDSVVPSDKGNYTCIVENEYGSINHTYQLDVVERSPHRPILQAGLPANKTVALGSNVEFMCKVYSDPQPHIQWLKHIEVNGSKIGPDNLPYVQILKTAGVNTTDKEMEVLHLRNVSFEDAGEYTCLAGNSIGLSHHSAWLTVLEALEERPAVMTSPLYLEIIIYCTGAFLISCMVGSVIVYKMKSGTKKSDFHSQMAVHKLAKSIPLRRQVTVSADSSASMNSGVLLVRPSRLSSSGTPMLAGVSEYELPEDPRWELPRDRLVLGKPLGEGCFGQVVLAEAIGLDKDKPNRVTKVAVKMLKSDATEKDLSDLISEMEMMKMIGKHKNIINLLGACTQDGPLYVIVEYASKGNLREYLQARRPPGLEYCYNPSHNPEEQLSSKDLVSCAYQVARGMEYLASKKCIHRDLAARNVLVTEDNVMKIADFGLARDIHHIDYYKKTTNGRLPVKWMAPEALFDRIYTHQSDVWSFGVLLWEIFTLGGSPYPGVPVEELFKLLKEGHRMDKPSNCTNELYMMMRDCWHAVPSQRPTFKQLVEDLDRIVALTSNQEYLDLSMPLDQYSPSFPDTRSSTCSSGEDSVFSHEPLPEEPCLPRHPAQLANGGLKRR
# protocol: phosphorylation enrichment, bacterial display (enrichment ratio); higher = better substrate or ligand; peptides without Tyr show the background;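 further: 11-residue human phosphosite peptides and single-mutation variants displayed on the E. coli surface, counted by deep sequencing, each peptide's frequency after selection divided by its frequency in the unselected input library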;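 further: frequency after pTyr selection over input frequency; kinase dosed for 20-30% of maximal phosphorylation in three min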
quantity: phosphorylation enrichment

{"sequence data": "GEPLSHTRFSL [TFRC_Y20_Y20H]", "system": "FGFR1 (UniProt P11362)", "data value": 0.424}
{"sequence data": "DEIPLYLKGGV [COX7A2_Y44]", "system": "FGFR1 (UniProt P11362)", "data value": 0.5}
{"sequence data": "KDQGGYTMHQD [MAPT_Y29]", "system": "FGFR1 (UniProt P11362)", "data value": 0.512}
{"sequence data": "KLLPEYPGVLS [DHFR2_Y163]", "system": "FGFR1 (UniProt P11362)", "data value": 0.379}
{"sequence data": "TSAEGYQDVRD [ABLIM1_Y439_P434T]", "system": "FGFR1 (UniProt P11362)", "data value": 0.77}
{"sequence data": "LIGRRYDDPEV [HSPA9_Y128]", "system": "FGFR1 (UniProt P11362)", "data value": 0.643}
{"sequence data": "NAGDYYDLYGG [PTPN11_Y63_T59A]", "system": "FGFR1 (UniProt P11362)", "data value": 19.3}
{"sequence data": "TLMNAYSSRCH [KIF11_Y231_S235C]", "system": "FGFR1 (UniProt P11362)", "data value": 0.492}
{"sequence data": "LKYAIYFEARE [LAMA2_Y1258]", "system": "FGFR1 (UniProt P11362)", "data value": 0.938}
{"sequence data": "FIGVTYKNEED [PDGFRA_Y993_YF]", "system": "FGFR1 (UniProt P11362)", "data value": 0.584}
{"sequence data": "CSHMFYGKQCC [ADAMTS16_Y1211_K1209M]", "system": "FGFR1 (UniProt P11362)", "data value": 0.464}
